- Tested on: K-562 leukemia
- METHOD SUMMARY: NCI tumour cell line growth inhibition, 48 h
MEASURED PARAMETER: TGI

Some solved entries appear below for comparison.
COMPOUND	TGI
O=C(O)C1CCCN1C(=O)c1cc(Cl)ccn1 (stereo unspecified)	> 100 µM
c1ccc([P+](CCN2Cc3ccccc3C2)(c2ccccc2)c2ccccc2)cc1	> 100 µM
CC(C)C(=O)N1C(=O)O[C@@H](c2ccccc2)[C@H]1C	> 100 µM

Name the recorded TGI of O=C(OCCN=C1c2ccccc2CCc2ccccc21)c1ccccc1 , assay system K-562 leukemia.
> 100 µM

Name the recorded TGI of CCCCNc1nc(N)nc(Nc2ccc(Br)cc2)c1N=O , assay system K-562 leukemia.
> 100 µM

Name the recorded TGI of CC1CN1C1=CC(=O)c2c(c(CO)cn2C)C1=O (stereo unspecified) , assay system K-562 leukemia.
64.5 µM

Name the recorded TGI of O=C(/C(=C\c1ccccc1)CN1CCOCC1)c1ccc(Br)cc1 , assay system K-562 leukemia.
15.9 µM

Name the recorded TGI of Cc1ccc(-c2cc(C(=O)N3N=C(c4ccc(N)cc4)CC3c3ccc(Cl)cc3)c3ccccc3n2)cc1 (stereo unspecified) , assay system K-562 leukemia.
> 100 µM

Name the recorded TGI of O=c1[nH]nc(Cc2ccccc2)n1/N=C\CC/C=N\n1c(Cc2ccccc2)n[nH]c1=O , assay system K-562 leukemia.
> 100 µM

Name the recorded TGI of NC(N)=C1CN(C2CCCCC2)C(=O)NC1=O , assay system K-562 leukemia.
> 100 µM

Name the recorded TGI of FC(F)(F)c1cccc(Nc2nc3ccccc3nc2Nc2cccc(C(F)(F)F)c2)c1 , assay system K-562 leukemia.
5.61 µM
